tested on: CAKI-1 renal; assay: NCI tumour cell line growth inhibition, 48 h; in the data active = GI50 below about 0.43 µM; inactive = the rest
Mark one answer only. Choices: YES (active), NO (inactive)

Example entries begin here.
C[C@H](Nc1cc(Cl)nc2c1cnn2[C@@H]1O[C@H](COP(=O)(O)CP(=O)(O)O)[C@@H](O)[C@H]1O)c1ccccc1F ... NO
COc1ccc(C(O)(CCC(C)C)C(CN2CCOCC2)c2ccc(Cl)cc2)cc1 (configuration not stated) ... NO

Q: Recorded test call requested for CN1CC[C@@H](c2c(O)cc(O)c3c(=O)cc(-c4ccc(C(F)(F)F)cc4Cl)oc23)[C@@H]1CO
Result: NO

Q: Assay result, entry C[C@@]12CCC[C@@](C)(C(=O)O)C1CC[C@]13CC(=O)[C@](CO)(C1)[C@@H](O)CC32 (some centres not stated) — outcome?
Result: NO

Q: // return assay outcome for BrCc1cccc(C[P+](c2ccccc2)(c2ccccc2)c2ccccc2)c1
Result: NO

Q: Please indicate how the test categorized O=C(Nc1cc(C(F)(F)F)ccc1Cl)c1cccc(NC2=C(Cl)C(=O)N(Cc3ccccc3)C2=O)c1 .
Result: NO

Q: What is the recorded call for this molecule in the test? CCCCCCCN=C(N)c1ccc(N2CCN(c3ccc(C(N)=NCCCCCCC)cc3)CC2)cc1
Result: NO

Q: What is the recorded call for this molecule in the test? Cn1c(=O)c(Oc2ccc(F)cc2)cc2cnc(NC3CCOCC3)nc21
Result: NO

Q: Write down the call the test reported for this molecule. Item: CCc1ccc(/C=C/c2ccc(O)c3ncccc23)[n+](C)c1
Result: NO

Q: Please let me know the test result on file for COc1ccc(-c2nnc(N3CCN(C(=O)CN4CCN(c5ccccc5)CC4)CC3)nc2-c2ccc(OC)cc2)cc1 .
Result: NO

Q: Dear colleague, could you share the recorded outcome for O=[N+]([O-])c1ccc(CI)cc1 when you have a moment?
Result: NO
